- experimental.system: Single-stranded DNA-binding protein (Escherichia coli (strain K12)) (UniProt P0AGE0)
- assay: SSB-ssDNA binding inhibitors – biochemical, fluorescence polarization, NIH Clinical Collection, counter-screen for HCV NS3 helicase inhibitor project (AID 743271)
- experimental.setup: E. coli SSB-DNA binding, stronger effect = higher value, concentration not given here
experimental.readout: inhibition (%)
Report the value in % with no unit label.

Task item: // lookup inhibition for Cc1cccc(C)c1NC(=O)C(C)N (stereo not drawn)
Reply: -3.95

Task item: Next record, please: `CC(C)(C#N)c1cc(Cn2cncn2)cc(C(C)(C)C#N)c1`
Reply: 1.18

Task item: Next record, please: `CN1CCC(=C2c3ccccc3C=Cc3ccccc32)CC1`
Reply: -0.39

Task item: Next record, please: `CCN(CC)CCNC(=O)c1cc(Cl)c(N)cc1OC`
Reply: -0.48

Task item: Next record, please: `Nc1ccn([C@H]2CC[C@@H](CO)O2)c(=O)n1`
Reply: -1.64

Task item: Next record, please: COc1cc2nc(N3CCN(C(=O)C4COc5ccccc5O4)CC3)nc(N)c2cc1OC (stereo not drawn)
Reply: -2

Task item: Next record, please: `CC(C)(C(=O)c1cccnc1)c1cccnc1`
Reply: 1.05

Task item: Next record, please: `CC(=O)Nc1ccc(CC(=O)O)cc1`
Reply: -2.41

Task item: Next record, please: `CC(C)(C)NC(=O)[C@H]1CC[C@H]2[C@@H]3CC[C@H]4NC(=O)C=C[C@]4(C)[C@H]3CC[C@]12C`
Reply: -2.41

Task item: Next record, please: CC(c1cc2ccccc2s1)N(O)C(N)=O (stereo not drawn)
Reply: -0.87

Task item: Next record, please: Oc1ccc(C2CNCCc3c2cc(O)c(O)c3Cl)cc1 (stereo not drawn)
Reply: -7.03

Task item: Next record, please: `CC(C)c1ccc2oc3nc(N)c(C(=O)O)cc3c(=O)c2c1`
Reply: 6.06

Task item: Next record, please: `O=C1Nc2ccc(Cl)cc2[C@@](C#CC2CC2)(C(F)(F)F)O1`
Reply: 6.06

Task item: Next record, please: `O=C1CC2(CCCC2)CC(=O)N1CCCCN1CCN(c2ncccn2)CC1`
Reply: 1.05

Task item: Next record, please: `O=c1[nH]cnc2c1ncn2[C@H]1CC[C@@H](CO)O1`
Reply: 0.67

Task item: Next record, please: `COC(=O)C1=C(C)NC(C)=C(C(=O)O[C@@H]2CCCN(Cc3ccccc3)C2)[C@@H]1c1cccc([N+](=O)[O-])c1`
Reply: 5.29

Task item: Next record, please: CCN1CC(CCN2CCOCC2)C(c2ccccc2)(c2ccccc2)C1=O (stereo not drawn)
Reply: 5.91

Task item: Next record, please: `CCOC(=O)O[C@]1(C(=O)OCCl)CC[C@H]2[C@@H]3CCC4=CC(=O)C=C[C@]4(C)[C@H]3[C@@H](O)C[C@@]21C`
Reply: 4.52

----------
- assay: MELAS cybrid and Rieske KO viability enhancers – cell-based, MELAS cybrids, Rieske KO mouse fibroblasts, CellTiter-Glo, primary screen (AID 1508586);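 further: z relative to plate mean and SD of compound and empty wells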
- experimental.setup: MELAS cybrid survival, low glucose, CellTiter-Glo 48 h; stronger effect = higher value
experimental.readout: z-score
// return a plain number; no unit text

Task item: // lookup z-score for `CC[C@]12CCCN3CCc4c(n(c5ccccc45)C(=O)C1)[C@@H]32`
Reply: 1.02

Task item: Next record, please: `NC(=O)N/N=C/c1ccc([N+](=O)[O-])o1`
Reply: -0.906

Task item: Next record, please: `CC(=O)Nc1ccc(CC(=O)O)cc1`
Reply: -0.406

Task item: Next record, please: CCN1CCCC(OC(=O)C(c2ccccc2)c2ccccc2)C1 (stereo unspecified)
Reply: 0.463

Task item: Next record, please: `Cc1cc(-c2ccccc2)nnc1NCCN1CCOCC1`
Reply: 0.442

Task item: Next record, please: `Cc1ccsc1/C=C/C1=NCCCN1C`
Reply: -0.598

Task item: Next record, please: `CCN(CC)CCNC(=O)COc1ccc(OC)cc1`
Reply: 0.396

Task item: Next record, please: `CC1=NN(c2ccccc2)C(=O)C1`
Reply: -0.423

Task item: Next record, please: `O=C(O)P(=O)(O)O`
Reply: -0.331

Task item: Next record, please: `CCOc1cc(CC(=O)N[C@@H](CC(C)C)c2ccccc2N2CCCCC2)ccc1C(=O)O`
Reply: -0.407

Task item: Next record, please: `CN(CCCN1c2ccccc2CCc2ccccc21)CC(=O)c1ccc(Cl)cc1`
Reply: 0.202

----------
Can you tell me cytochrome c release ratio for the items I'm about to list?
- assay: blockers of cytochrome c efflux from mitochondria – biochemical, purified mitochondria (AID 1603);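 further: mouse liver mitochondria challenged with calcium chloride; signal normalized to the plate average as 100%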
- experimental.setup: stronger effect = lower value
// return a plain number; no unit text

Task item: // lookup cytochrome c release ratio for `CCn1cc(C(=O)O)c(=O)c2cnc(N3CCCC3)nc21`
Reply: 1.33

Task item: Next record, please: `Nc1nc(=S)c2[nH]cnc2[nH]1`
Reply: 0.96

Task item: Next record, please: `Cc1ccsc1/C=C/C1=NCCCN1C`
Reply: 0.66

Task item: Next record, please: `O=C1OC(c2ccc(O)cc2)(c2ccc(O)cc2)c2ccccc21`
Reply: 4.22

Task item: Next record, please: `CN1CCC[C@@H]1CCO[C@](C)(c1ccccc1)c1ccc(Cl)cc1`
Reply: 1.13

Task item: Next record, please: `O=C1c2ccccc2C(=O)C1c1ccccc1`
Reply: 0.89

Task item: Next record, please: CCCCC(CC)CN1CN(CC(CC)CCCC)CC(C)(N)C1 (configuration not stated)
Reply: 0.41

Task item: Next record, please: `CC(=O)OCC1=C(C(=O)O)N2C(=O)[C@@H](NC(=O)Cc3cccs3)[C@H]2SC1`
Reply: 0.78

Task item: Next record, please: CCCCC(CC)CN=C(N)NC(N)=NCCCCCCN=C(N)NC(N)=NCC(CC)CCCC (configuration not stated)
Reply: 26.4

Task item: Next record, please: `CN1C(C(=O)Nc2ccccn2)=C(O)c2sccc2S1(=O)=O`
Reply: 1.03

Task item: Next record, please: `Nc1ccc(S(=O)(=O)Nc2ccnn2-c2ccccc2)cc1`
Reply: 0.99

Task item: Next record, please: CC(CN(C)C)CN1c2ccccc2CCc2ccccc21 (configuration not stated)
Reply: 0.94

----------
- assay: NPC library primary testing for decreased DLD-1 cell viability via CellTiter-Glo (AID 1117346)
- experimental.setup: DLD-1 viability, CellTiter-Glo luminescence; at 20 µM (top of the series)
The source made the active and inactive calls.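 Rule for the calls: active = compounds that lower survival of DLD-1 colon cancer cells in the luminescence readout, no cutoff given; inactive = the rest.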
Allowed answers: active, inactive

Task item: Field: outcome | Entry: `Cc1nc2n(c(=O)c1CCN1CCC(c3noc4cc(F)ccc34)CC1)CCC[C@H]2O`
Reply: inactive

Task item: Next record, please: CCOC(=O)OC(C)OC(=O)[C@@H]1N2C(=O)[C@@H](NC(=O)[C@H](N)c3ccccc3)[C@H]2SC1(C)C (stereo partly specified)
Reply: inactive

Task item: Next record, please: `Cc1c(C(N)=O)cc([N+](=O)[O-])cc1[N+](=O)[O-]`
Reply: inactive

Task item: Next record, please: CCOc1cc(N)c(Cl)cc1C(=O)NCC1CN(Cc2ccc(F)cc2)CCO1 (stereo unspecified)
Reply: inactive

Task item: Next record, please: `CC(=O)O[C@]1(C(C)=O)CC[C@H]2[C@@H]3C=C(Cl)C4=CC(=O)CC[C@]4(C)[C@H]3CC[C@@]21C`
Reply: inactive

Task item: Next record, please: CC1CC(OC(=O)C(O)c2ccccc2)CC(C)(C)N1C (stereo unspecified)
Reply: inactive

Task item: Next record, please: `Nc1ccc(S(=O)(=O)Nc2cnc3ccccc3n2)cc1`
Reply: inactive

Task item: Next record, please: `CCN(CC)C(=O)c1cccc(C)c1`
Reply: inactive

Task item: Next record, please: `CCCCOc1cc(C(=O)NCCN(CC)CC)c2ccccc2n1`
Reply: inactive

Task item: Next record, please: `CC(=O)Oc1ccccc1C(=O)O`
Reply: inactive

Task item: Next record, please: `C[C@H]1O[C@@H](n2cc(F)c(=O)[nH]c2=O)[C@H](O)[C@@H]1O`
Reply: inactive

Task item: Next record, please: `CN(C)CC/C=C1/c2ccccc2COc2ccc(CC(=O)O)cc21`
Reply: inactive

Task item: Next record, please: CCCCCCCCCCCCCCCCCCOCC(O)CO (stereo unspecified)
Reply: inactive

Task item: Next record, please: `Cc1cnc(C(=O)O)c[n+]1[O-]`
Reply: inactive

Task item: Next record, please: `O=C1c2ccccc2C(=O)c2c1ccc(O)c2O`
Reply: active

Task item: Next record, please: CCN(CC)CCOC(=O)C(c1ccccc1)C1CCCCC1 (stereo unspecified)
Reply: inactive

Task item: Next record, please: `NC/C=C/C(=O)O`
Reply: inactive

Task item: Next record, please: `CC(=O)[C@@]1(O)CC[C@H]2[C@@H]3C[C@H](C)C4=CC(=O)C=C[C@]4(C)[C@@]3(F)[C@@H](O)C[C@@]21C`
Reply: inactive

Task item: Next record, please: `C[C@H]1COc2c(C3(N)CC3)c(F)cc3c(=O)c(C(=O)O)cn1c23`
Reply: inactive

Task item: Next record, please: `CCOC(=O)NNc1nncc2ccccc12`
Reply: inactive

Task item: Next record, please: `C#C[C@]1(O)CC[C@H]2[C@@H]3[C@H](C)CC4=C(CCC(=O)C4)[C@H]3CC[C@@]21C`
Reply: active

Task item: Next record, please: `O=C1CC2(CCCC2)CC(=O)N1CCCCN1CCN(c2ncccn2)CC1`
Reply: inactive

Task item: Next record, please: CN1[C@@H]2CC[C@H]1CC(OC(=O)C(O)c1ccccc1)C2 (stereo partly specified)
Reply: inactive

Task item: Next record, please: `O=NN(CCCl)C(=O)NCCCl`
Reply: inactive

Task item: Next record, please: `C[C@H](N)[C@H](O)c1cccc(O)c1`
Reply: inactive

Task item: Next record, please: `Cc1[nH]cnc1CN1CCc2c(c3ccccc3n2C)C1=O`
Reply: inactive

Task item: Next record, please: `COc1cccc(OC)c1C(=O)N[C@@H]1C(=O)N2[C@@H]1SC(C)(C)[C@@H]2C(=O)O`
Reply: inactive

Task item: Next record, please: `CN1CCN(C(c2ccccc2)c2ccccc2)CC1`
Reply: inactive

Task item: Next record, please: `S=P(N1CC1)(N1CC1)N1CC1`
Reply: inactive

Task item: Next record, please: C=CCc1ccccc1OCC(O)CNC(C)C (stereo unspecified)
Reply: inactive

Task item: Next record, please: `CC1(C)O[C@@H]2C[C@H]3[C@@H]4C[C@H](F)C5=CC(=O)CC[C@]5(C)[C@H]4[C@@H](O)C[C@]3(C)[C@]2(C(=O)CO)O1`
Reply: inactive

Task item: Next record, please: `CC(=O)Oc1ccc(C(c2ccc(OC(C)=O)cc2)c2ccccn2)cc1`
Reply: active

Task item: Next record, please: CC(Cc1cccc(C(F)(F)F)c1)NCCOC(=O)c1ccccc1 (stereo unspecified)
Reply: inactive

Task item: Next record, please: `CC(C)(Oc1ccc(CCNC(=O)c2ccc(Cl)cc2)cc1)C(=O)O`
Reply: inactive

Task item: Next record, please: `O=C1C(O)=C(O)C(=O)C(O)=C1O`
Reply: inactive

Task item: Next record, please: `O=C(NCCN1CCOCC1)c1ccc(Cl)cc1`
Reply: inactive

Task item: Next record, please: `CC(=O)[C@]1(O)Cc2c(O)c3c(c(O)c2[C@@H](O[C@H]2C[C@H](N)[C@H](O)[C@H](C)O2)C1)C(=O)c1ccccc1C3=O`
Reply: active

Task item: Next record, please: `CC(=O)Oc1cccc(O)c1`
Reply: inactive

Task item: Next record, please: `NC(=O)c1ccccc1O`
Reply: inactive

Task item: Next record, please: `CC1(C)S[C@@H]2[C@H](NC(=O)[C@H](N)c3ccccc3)C(=O)N2[C@H]1C(=O)O`
Reply: inactive

Task item: Next record, please: `Cc1cc(=O)[nH]c(=S)[nH]1`
Reply: inactive
